Test system: A549
test details: Cytotoxicity against human A549 cells at 10 to 100 uM by MTT assay
Assay type: cell-based
protocol conditions: a549, 100 µM
observation type: Activity

[[record]]
compound = "O=C(/C=C/c1ccc(O)c(O)c1)O[C@@H]1C[C@](O)(C(=O)O)C[C@@H](OC(=O)/C=C/c2ccc(O)c(O)c2)[C@H]1O"
study_target = "A549"
observation_type = "Activity"
val = "Non-Toxic"

[[record]]
compound = "C[C@@H]1O[C@@H](Oc2c(-c3ccc(O)cc3)oc3cc(O)cc(O)c3c2=O)[C@H](O)[C@H](O)[C@H]1OC(=O)/C=C/c1ccc(O)cc1"
study_target = "A549"
observation_type = "Activity"
val = "Non-Toxic"

[[record]]
compound = "O=C1/C=C/CCc2ccc(O[C@@H]3O[C@H](CO)[C@@H](O)[C@H](O)[C@H]3O)c(c2)-c2cc(ccc2O[C@H]2OC[C@H](O)[C@H](O)[C@H]2O)CC1 (mixture of isomers)"
study_target = "A549"
observation_type = "Activity"
val = "Non-Toxic"


* * *

System: Bacillus cereus
test details: Antimicrobial activity against Bacillus cereus DSM 4313 assessed as growth inhibition at 40 ug per disc after 24 to 48 hrs (reference value: 0 millimeter)
Assay type: functional
protocol conditions: read-out: DIZ
observation type: zone of inhibition at 40 µg/disc (mm)
Number only, in mm; omit the unit.

Reported zone of inhibition at 40 µg/disc (Bacillus cereus) for entry O=C1Cc2ccc(O)c(c2)-c2cc(ccc2O)C[C@@H](O)[C@@H](O)[C@@H](O)[C@H]1O (mixture of isomers) is 10.7

Simply: C[C@@H]1O[C@@H](Oc2c(-c3ccc(O)cc3)oc3cc(O)cc(O)c3c2=O)[C@H](O)[C@H](O)[C@H]1O , Bacillus cereus, zone of inhibition at 40 µg/disc = 0

Tested on Bacillus cereus: O=C1/C=C/CCc2ccc(O[C@@H]3O[C@H](CO)[C@@H](O)[C@H](O)[C@H]3O)c(c2)-c2cc(ccc2O[C@H]2OC[C@H](O)[C@H](O)[C@H]2O)CC1 (mixture of isomers) . Observed zone of inhibition at 40 µg/disc: 5

Assay Bacillus cereus, sample C[C@@H]1O[C@@H](Oc2c(-c3cc(O)c(O)c(O)c3)oc3cc(O)cc(O)c3c2=O)[C@H](O)[C@H](O)[C@H]1O , zone of inhibition at 40 µg/disc read: 0

Short answer on Bacillus cereus for O=C(O)CC(O)(CC(=O)O)C(=O)O , zone of inhibition at 40 µg/disc: 10

Form: item O=C1CCc2ccc(O)c(c2)-c2cc(ccc2O)C[C@@H](O)[C@H](O)[C@H]1O (mixture of isomers) ; test system Bacillus cereus; zone of inhibition at 40 µg/disc: 10.7

Short answer on Bacillus cereus for C[C@@H]1O[C@@H](Oc2c(-c3ccc(O)cc3)oc3cc(O)cc(O)c3c2=O)[C@H](O)[C@H](O)[C@H]1OC(=O)/C=C/c1ccc(O)cc1 , zone of inhibition at 40 µg/disc: 5.33

Test item O=C(/C=C/c1ccc(O)c(O)c1)O[C@@H]1C[C@](O)(C(=O)O)C[C@@H](OC(=O)/C=C/c2ccc(O)c(O)c2)[C@H]1O ; Bacillus cereus; reported zone of inhibition at 40 µg/disc was 0

Noted zone of inhibition at 40 µg/disc for COC(=O)CC(O)(CC(=O)O)C(=O)O (stereo unspecified) , tested on Bacillus cereus: 5.67

Form field, zone of inhibition at 40 µg/disc with Bacillus cereus, item O=C1CCc2ccc(O[C@@H]3O[C@H](CO)[C@@H](O)[C@H](O)[C@H]3O)c(c2)-c2cc(ccc2O)C[C@@H](O)[C@H](O)[C@H]1O (mixture of isomers) : 5

The compound COC(=O)CC(O)(CC(=O)OC)C(=O)OC , when measured on Bacillus cereus, yielded zone of inhibition at 40 µg/disc of 0
